B1: HMOX1 (parent)
chain: YHIYVALEEEIERNKESPVFAPVY

variants of: B1; assay: protein stability index of a GFP-peptide fusion (GPS, HEK-293T) (PSI 1-6); higher = more stable; conditions: c terminus: a fixed tail appended;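 further: lentivirally expressed fusions sorted by FACS into six bins by GFP to DsRed ratio, PSI derived from sequencing read proportions per bin multiplied by bin number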
Label YES for high-side protein stability index (at or above 2) and NO for low-side protein stability index (below it).

>>> assigned_label("V23E")
"YES"
>>> assigned_label("I11F")
"NO"
>>> assigned_label("R13P")
"YES"

API: above_or_equal(metric=protein stability index, cutoff=2) for item `E10L` YES

Decide: protein stability index of `I3R` >= 2? YES

Kindly determine if protein stability index recorded for `V5K` is above or exactly 2. YES
